- assay.notes: Quantitative High-Throughput drug screen in 47 multiple myeloma cell lines against the NCATS MIPE library collection: Karpas25_ECACC cell viability assay (AID 1918968; further: nearly all actives have a fitted effect of over 35% in size; further: potency means the concentration at half of the fitted maximal effect)
- test.settings: Karpas25 myeloma viability, CellTiter-Glo ATP, 48 h; series mostly up to 45.8 µM
Inconclusive results are not listed. The source made the active and inactive calls. The call rests on the fitted dose curve; in most records, active means well fitted cell-killing curve with a large enough effect; inconclusive means small, poorly fitted or top-dose-only effect, or effect the other way; inactive means no such curve, though single readings can be large or run the other way.
observable: Potency

Example entries and their recorded answers appear below.
O=C(Nc1cccc(Nc2ncc(Br)c(NCCc3cnc[nH]3)n2)c1)N1CCCC1: 5900 nM (active)
CC(C)NC[C@@H](C(=O)N1CCN(c2ncnc3c2[C@H](C)C[C@H]3O)CC1)c1ccc(Cl)cc1: 469 nM (active)
C=CC(=O)Nc1cccc(Nc2nc(NC3CCC(N(C)C)CC3)nc3c2ncn3C(C)C)c1 (stereo not drawn): 29.6 nM (active)
CC(C)(O)Cn1c(NC(=O)c2ccc(-c3cn[nH]c3)s2)nc2cc(CN3CCOCC3)ccc21: 935 nM (active)
CCOc1cc2c(c(F)c1OCC)C(=N)N(CC(=O)c1cc(N3CCOCC3)c(OC)c(C(C)(C)C)c1)C2: 9350 nM (active)
CN1C(C(=O)Nc2ccccn2)=C(O)c2sc(Cl)cc2S1(=O)=O: 2640 nM (active)
C=C(C)[C@@H]1CC[C@]2(C)CC[C@]3(C)[C@H](CC[C@@H]4[C@@]5(C)CC[C@H](O)C(C)(C)[C@H]5CC[C@]43C)[C@@H]12: inactive
COc1cccc2c1C(=O)c1c(O)c3c(c(O)c1C2=O)C[C@@](O)(C(=O)CO)C[C@@H]3O[C@H]1C[C@H](N)[C@H](OC2CCCCO2)[C@H](C)O1 (stereo partly drawn): 1050 nM (active)

Continue with the next compound.
Problem: For the compound shown here, C[C@]12C=CC(=O)N[C@@H]1CC[C@H]1[C@H]3CC[C@@H](C(=O)Nc4cc(C(F)(F)F)ccc4C(F)(F)F)[C@@]3(C)CC[C@@H]12 , give the reported Potency.
Result: 11800 nM (active)

====

- assay.notes: qHTS of pediatric cancer cell lines to identify multiple opportunities for drug repurposing: Primary screen for Rh18 cells (AID 1347102); further: nearly all actives have a fitted effect of over 65% in size; further: potency means the concentration at half of the fitted maximal effect
- test.settings: Rh18 rhabdomyosarcoma viability, CellTiter-Glo luminescence, 48 h; series mostly up to 46 µM
Inconclusive results are not listed. Active and inactive are the calls of the source. The call rests on the fitted dose curve; in most records, active means well fitted cell-killing curve with a large enough effect; inconclusive means small, poorly fitted or top-dose-only effect; inactive means flat fitted curve, though single readings scatter. Positions of bridges follow the written chain, without caps; N, C: chain ends. Non-standard residues stand in square brackets, D forms with d. Residues, ends and D or L forms follow the SMILES beside them. ξ: configuration not given here. *: point of attachment. Octanoyl(6-Me) = CCC(C)CCCCC(=O)*; ξThr(3R) = C[C@@H](O)C(N)C(=O)O; dDab = NCC[C@@H](N)C(=O)O; Dab = NCC[C@H](N)C(=O)O
observable: Potency

Observe how each entry below is paired with its result.
CCCCC(=O)O[C@]1(C(=O)CO)[C@@H](C)C[C@H]2[C@@H]3CCC4=CC(=O)C=C[C@]4(C)[C@@]3(F)[C@@H](O)C[C@@]21C: inactive
C[C@H](CCC(=O)O)[C@H]1CC[C@H]2[C@@H]3[C@H](O)C[C@@H]4C[C@H](O)CC[C@]4(C)[C@@H]3CC[C@]12C: inactive
CC(=O)NC(CS)C(=O)O (centres undefined): inactive
O=S(=O)(O)CCSSCCS(=O)(=O)O: inactive
CCC(C)CCCCC(=O)N[C@@H](CCN)C(=O)NC(C(=O)N[C@H](CCN)C(=O)N[C@@H]1CCNC(=O)C([C@@H](C)O)NC(=O)[C@@H](CCN)NC(=O)[C@@H](CCN)NC(=O)[C@@H](CC(C)C)NC(=O)[C@H](Cc2ccccc2)NC(=O)[C@H](CCN)NC1=O)[C@@H](C)O (stereo partly drawn) ({Octanoyl(6-Me)}-[Dab][ξThr(3R)][dDab][dDab][Dab]F[dL][dDab][dDab][ξThr(3R)]; lactam 4-C): inactive
CCC(C(=O)O)C1CCC(C)C(C(C)C(O)C(C)C(=O)C(CC)C2OC3(C=CC(O)[C@@]4(CC[C@](C)(C5CC[C@@](O)(CC)C(C)O5)O4)O3)C(C)CC2C)O1 (some centres undefined): 5.9 µM (active)
O=C(C=Cc1ccc(CN(CCO)CCc2c[nH]c3ccccc23)cc1)NO: 0.105 µM (active)
c1cc(CN2CCCNCCNCCCNCC2)ccc1CN1CCCNCCNCCCNCC1: inactive

Problem: What Potency value was documented for this compound, O=C(Nc1ccc(Oc2ccnc3[nH]ccc23)c(F)c1)c1cccn(-c2ccc(F)cc2)c1=O ?
Result: inactive

====

- assay.notes: Quantitative High-Throughput drug screen in 47 multiple myeloma cell lines against the NCATS MIPE library collection: OPM1_PLB cell viability assay (AID 1918989); further: nearly all actives have a fitted effect of over 40% in size
- test.settings: CellTiter-Glo, 48 h; series mostly up to 45.8 µM
Records with an inconclusive call do not appear. Activity calls are given as the source filed them. The call rests on the fitted dose curve; in most records, active means well fitted cell-killing curve with a large enough effect; inconclusive means small, poorly fitted or top-dose-only effect, or effect the other way; inactive means no such curve, though single readings can be large or run the other way.
Pick from active, inactive when you respond.

Below, 5 compounds whose answers are already recorded.
CCCCC(=O)O[C@]1(C(=O)CO)[C@@H](C)C[C@H]2[C@@H]3CCC4=CC(=O)C=C[C@]4(C)[C@@]3(F)[C@@H](O)C[C@@]21C: active
C[C@H]1[C@@H](OC(=O)CCC(=O)O)O[C@@H]2O[C@@]3(C)CC[C@@H]4[C@H](C)CC[C@@H]1[C@@]24OO3: active
CC(C)(O)CC[C@@H](O)[C@](C)(O)[C@H]1CC[C@@]2(O)C3=CC(=O)[C@@H]4C[C@@H](O)[C@@H](O)C[C@]4(C)[C@@H]3CC[C@]12C: inactive
COc1ccc(C=Cc2cc(OC)c(OC)c(OC)c2)cc1NC(=O)[C@H](N)CO: active
COc1cc(C(C)C)c(Oc2cnc(NC(CO)CO)nc2N)cc1I: active

Problem: Name the outcome recorded for O=C1CSC(=O)N1C(CCc1ccncc1)COc1ccc(-c2cccc([N+](=O)[O-])c2)cc1 (configuration not stated) in the assay.
Result: active

Problem: How about Oc1ccc([C@@H]2Oc3ccc(O)cc3[C@@H]3CCC[C@@H]32)cc1 ?
Result: active

Problem: Cool, now CN1C(C(=O)Nc2ccccn2)=C(O)c2sc(Cl)cc2S1(=O)=O
Result: active

Problem: Continue with C=CC(=O)N1CCc2ccc(-n3c(=O)ccc4cnc5ccc(-c6cnn(C)c6)cc5c43)cc21
Result: active

Problem: Can you check COc1cccc2c1C(=O)c1c(O)c3c(c(O)c1C2=O)C[C@@](O)(C(C)=O)C[C@H]3O[C@H]1C[C@H](N)[C@H](O)[C@H](C)O1 next?
Result: active

Problem: Can you handle CC(=O)O[C@H]1C[C@@H]2CC[C@H]3[C@H]4C[C@H]([N+]5(C)CCCCC5)[C@@H](OC(C)=O)[C@@]4(C)CC[C@@H]3[C@@]2(C)C[C@H]1N1CCCCC1 next?
Result: inactive

====

- assay.notes: qHTS of pediatric cancer cell lines to identify multiple opportunities for drug repurposing: Confirmatory screen for OHS-50 cells (AID 1347128);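 further: compound exposure lasted 48 h at 37 degrees C; nearly all actives have a fitted effect of over 55% in size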
- test.settings: OHS-50 osteosarcoma cells viability; series mostly up to 45.9 µM
Results filed as inconclusive are left out. Calls of active or inactive are those of the source. Calls come from the whole dose curve; as a rule, active = well fitted cell-killing curve with a large enough effect; inconclusive = small, poorly fitted or top-dose-only effect, or effect the other way; inactive = no such curve, though single readings can be large or run the other way.
Just give me one of these, please: active, inactive

CO[C@@H]1[C@@H](O)[C@H](O)[C@@H](n2c3c(Cl)cccc3c3c4c(c5c6cccc(Cl)c6[nH]c5c32)C(=O)NC4=O)O[C@@H]1CO: active

Problem: Tell me the recorded outcome of this test for C=CC(=O)N1CCc2ccc(-n3c(=O)ccc4cnc5ccc(-c6cnn(C)c6)cc5c43)cc21 .
Result: active

Problem: What about this molecule? CC(=O)SCC(Cc1ccccc1)C(=O)NCC(=O)OCc1ccccc1 (configuration not stated)
Result: inactive

Problem: Same for CCN(CC)CCNC(=O)c1c(C)[nH]c(C=C2C(=O)Nc3ccc(F)cc32)c1C
Result: active

Problem: Can you handle Cc1cnc(Nc2ccc(CN3CCOCC3)cc2)nc1Nc1cccc(S(=O)(=O)NC(C)(C)C)c1 next?
Result: active

Problem: Also Cn1cnc(=N)c2[nH]cnc21 , if possible.
Result: inactive

====

- Tested on: W2
- assay.notes: qHTS profiling for inhibitors of Plasmodium falciparum proliferation (AID 504749); further: nearly all actives have a fitted effect of over 60% in size; further: potency means the concentration at half of the fitted maximal effect
- test.settings: P. falciparum in erythrocytes, SYBR Green DNA, 72 h; series mostly up to 28.7 µM
Results filed as inconclusive are left out. Calls of active or inactive are those of the source. Calls come from the whole dose curve; as a rule, active = well fitted inhibition curve with a large enough effect; inconclusive = small, poorly fitted or top-dose-only effect; inactive = flat fitted curve, though single readings scatter.
observable: Potency

COc1ccc2c(c1OC)C(=O)OC2[C@H]1c2c(cc3c(c2OC)OCO3)CCN1C (stereo partly specified): inactive
Nc1nc2c(c(=O)[nH]1)N(C=O)[C@H](CNc1ccc(C(=O)N[C@@H](CCC(=O)O)C(=O)O)cc1)CN2: inactive
COc1ccc([C@@H]2CNC(=O)C2)cc1OC1CCCC1: inactive
CCC(C(=O)O)C1CCC(C)C(C(C)C(O)C(C)C(=O)C(CC)C2OC3(C=CC(O)[C@@]4(CC[C@](C)(C5CC[C@@](O)(CC)C(C)O5)O4)O3)C(C)CC2C)O1 (stereo partly specified): 757 nM (active)
OCC(O)C(O)C(O)CO (stereo unspecified): inactive

Problem: For the molecule shown here, COc1cccc2c1C(=O)c1c(O)c3c(c(O)c1C2=O)C[C@@](O)(C(=O)CO)C[C@@H]3O[C@H]1C[C@H](N)[C@H](OC2CCCCO2)[C@H](C)O1 (stereo partly specified) , give the reported Potency.
Result: 601 nM (active)
